# systemName: human sphingosine-1-phosphate receptor 1 (S1P1) (Homo sapiens)
# Sequence (P21453 whole entry): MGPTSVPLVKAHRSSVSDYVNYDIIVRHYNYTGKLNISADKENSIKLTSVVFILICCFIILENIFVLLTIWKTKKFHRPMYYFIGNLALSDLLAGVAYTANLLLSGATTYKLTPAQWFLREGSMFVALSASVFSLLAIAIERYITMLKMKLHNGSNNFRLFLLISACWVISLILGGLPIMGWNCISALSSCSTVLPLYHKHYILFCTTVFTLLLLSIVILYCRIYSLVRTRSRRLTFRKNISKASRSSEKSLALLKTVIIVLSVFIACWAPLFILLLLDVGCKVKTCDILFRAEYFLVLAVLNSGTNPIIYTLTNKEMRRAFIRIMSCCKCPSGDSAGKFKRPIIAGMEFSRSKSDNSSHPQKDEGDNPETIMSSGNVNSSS
# Sequence (P32121 whole entry partner): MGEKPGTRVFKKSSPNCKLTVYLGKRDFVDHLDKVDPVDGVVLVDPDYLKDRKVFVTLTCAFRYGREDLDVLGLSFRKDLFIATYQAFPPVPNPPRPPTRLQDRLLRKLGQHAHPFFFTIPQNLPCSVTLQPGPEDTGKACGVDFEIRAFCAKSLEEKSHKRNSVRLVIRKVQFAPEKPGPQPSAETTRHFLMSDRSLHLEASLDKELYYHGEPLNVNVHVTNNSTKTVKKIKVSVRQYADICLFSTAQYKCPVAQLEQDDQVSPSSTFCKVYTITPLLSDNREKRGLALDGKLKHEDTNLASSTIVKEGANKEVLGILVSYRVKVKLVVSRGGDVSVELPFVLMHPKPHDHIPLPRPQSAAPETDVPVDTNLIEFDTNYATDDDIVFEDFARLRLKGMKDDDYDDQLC
# experimentNotes: β-Arrestin2 recruitment assay (PathHunter), S1P1 CHO-K1 cells
# Assay type: cell-based
# experimentalConditions: β-arrestin2 recruitment, S1P1; read-out: hS1P1 B-arrestin2 pEC50 (converted)
# Protocol: Stable clonal Chinese hamster ovary K1 (CHO-K1) cells co-expressing EA-β-arrestin2 and the human sphingosine-1-phosphate receptor 1 (NM_001400, S1P1) with a C-terminal Prolink™ tag were purchased from DiscoverX corporation (Cat #: 93-0207C2). […] Agonist-promoted β-arrestin2 recruitment to the sphingosine-1-phosphate 1 receptor was determined using the β-arrestin PathHunter® Detection kit (DiscoverX Corporation, Cat #: 93-0001). […]
propertyMeasured: EC50

Task item: Give the measured EC50 of COc1ccc(-c2nc(-c3ccc4c(c3)nnn4CC(C)(C)CO)no2)c(C)c1 .
Reply: > 10 µM

Task item: Give the measured EC50 of CCC1(CC)CC(=O)c2cc(-c3nc(-c4cncc(C)c4)no3)ccc2O1 .
Reply: < 10 µM

Task item: Give the measured EC50 of CCCC1CC(=O)c2ccc(-c3nc(-c4cccnc4)no3)cc2O1 (stereo not drawn) .
Reply: > 10 µM

Task item: Give the measured EC50 of CC(C)n1nnc2cc(-c3nc4cccc(Br)c4o3)ccc21 .
Reply: > 10 µM

Task item: Give the measured EC50 of CCC1(CC)CC(=O)c2cc(-c3nc(-c4ccc(NS(C)(=O)=O)cc4OC)no3)ccc2O1 .
Reply: < 10 µM

Task item: Give the measured EC50 of CC1CC(=O)c2ccc(-c3nc(-c4ccncc4)no3)cc2O1 (stereo not drawn) .
Reply: < 10 µM
